- tested-system: human TLR9 (Homo sapiens (Human))
- test-method-notes: TLR9 inhibition reporter assay (HEK-Blue SEAP)
- condition-context: read-out: TLR9 IC50; HEK-Blue cells overexpressing human TLR9, SEAP reporter, ODN2006 5 nM
quantity-measured: IC50 (µM)

[
  {
    "compound": "Cc1c(-c2[nH]c3ccc(C4CCC(N(CCO)CC5(S(C)(=O)=O)CC5)CC4)nc3c2C(C)C)cn2ncnc2c1C (stereo not shown) [Example 481]",
    "IC50 (µM)": 13
  },
  {
    "compound": "CC(C)c1c(-c2ccc(=O)n(C)c2)[nH]c2ccc(C3CCNCC3)nc12",
    "IC50 (µM)": 0.545
  },
  {
    "compound": "COc1cc(-c2[nH]c3ccc(C4CC(N(C)CCS(C)(=O)=O)C4)nc3c2C(C)C)cn2ncnc12 (stereo not shown) [Example 640]",
    "IC50 (µM)": 13.5
  },
  {
    "compound": "COc1cc(-c2[nH]c3ccc(OC4CCN(CC(C)(C)O)CC4)nc3c2C(C)C)cn2ncnc12",
    "IC50 (µM)": 1.24
  }
]

(1) Cc1c(-c2[nH]c3ccc(C4CCC(NCC5CCCCS5(=O)=O)CC4)nc3c2C(C)C)cn2ncnc2c1C (stereo not shown) [Example 464]
(2) COc1cc(-c2[nH]c3ccc(C4CC(N(C)CCS(C)(=O)=O)C4)nc3c2C(C)C)cn2ncnc12 (stereo not shown) [Example 642]
(3) Cc1c(-c2[nH]c3cc(F)c(C4CCC(NC5CCOCC5)CC4)nc3c2C(C)C)cn2ncnc2c1C (stereo not shown) [Example 505]
Q: Order the items by recorded IC50; the first position goes to the largest value. The labels, placed in the requested order, form the answer.
Result: 2, 3, 1
(2: 18.1 µM, 3: 7.6 µM, 1: 1.77 µM)

* * *

- tested-system: human TLR9 (Homo sapiens (Human), UniProt Q9NR96)
- Sequence (Q9NR96 26-1032): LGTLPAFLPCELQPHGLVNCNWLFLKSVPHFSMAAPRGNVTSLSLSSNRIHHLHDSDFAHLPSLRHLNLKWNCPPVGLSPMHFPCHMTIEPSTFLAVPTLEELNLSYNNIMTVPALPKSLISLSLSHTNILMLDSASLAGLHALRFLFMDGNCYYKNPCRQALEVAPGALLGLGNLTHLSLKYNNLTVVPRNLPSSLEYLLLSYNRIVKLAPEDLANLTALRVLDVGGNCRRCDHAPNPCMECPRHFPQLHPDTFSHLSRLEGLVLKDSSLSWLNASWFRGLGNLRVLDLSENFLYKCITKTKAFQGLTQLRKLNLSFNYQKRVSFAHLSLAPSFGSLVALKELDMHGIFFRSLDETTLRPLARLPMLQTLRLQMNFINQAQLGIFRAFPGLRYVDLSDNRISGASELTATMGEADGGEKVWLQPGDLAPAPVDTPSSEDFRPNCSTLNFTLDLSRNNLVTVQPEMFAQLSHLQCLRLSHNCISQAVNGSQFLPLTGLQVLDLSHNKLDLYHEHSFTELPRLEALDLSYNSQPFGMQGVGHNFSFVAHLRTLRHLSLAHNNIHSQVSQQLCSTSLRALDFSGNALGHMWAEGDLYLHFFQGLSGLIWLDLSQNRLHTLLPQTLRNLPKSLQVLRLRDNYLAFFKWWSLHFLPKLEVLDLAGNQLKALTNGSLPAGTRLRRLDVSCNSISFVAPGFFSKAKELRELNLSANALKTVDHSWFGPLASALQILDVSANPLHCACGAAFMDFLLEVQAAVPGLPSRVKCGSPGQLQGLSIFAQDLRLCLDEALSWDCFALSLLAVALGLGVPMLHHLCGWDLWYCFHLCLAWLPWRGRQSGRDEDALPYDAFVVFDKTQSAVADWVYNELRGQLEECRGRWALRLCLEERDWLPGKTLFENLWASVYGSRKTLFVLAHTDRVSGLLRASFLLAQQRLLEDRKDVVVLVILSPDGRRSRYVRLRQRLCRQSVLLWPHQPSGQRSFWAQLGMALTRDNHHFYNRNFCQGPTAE
- test-method-notes: TLR9 inhibition reporter assay (HEK-Blue SEAP);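 note: SEAP driven by an IFN-β minimal promoter with NF-κB and AP-1 sites, read after 22 h, compounds dosed 0.05 nM–50 µM, inhibition scaled between agonist plus DMSO and reference-inhibitor wells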
- condition-context: read-out: TLR9 IC50; HEK-Blue cells overexpressing human TLR9, SEAP reporter, ODN2006 5 nM
pIC50: −log10 of the molar value.
quantity-measured: pIC50

[
  {
    "compound": "Cc1c(-c2[nH]c3ccc(C4CCC(NCC5(C)COC5)CC4)nc3c2C(C)C)cn2ncnc2c1C (stereo not drawn) [Example 474]",
    "quantity-measured": "pIC50",
    "result": 5.84
  },
  {
    "compound": "Cc1c(-c2[nH]c3ccc(C4CCC(NCCS(N)(=O)=O)CC4)nc3c2C(C)C)cn2ncnc2c1C (stereo not drawn) [Example 447]",
    "quantity-measured": "pIC50",
    "result": 5.79
  },
  {
    "compound": "Cc1c(-c2[nH]c3ccc(CCC4CN(C(=O)CN(C)C)C4)nc3c2C(C)C)cn2ncnc2c1C [Example 685]",
    "quantity-measured": "pIC50",
    "result": 5.80
  },
  {
    "compound": "COc1cc(-c2[nH]c3ccc(OCC4CN(CC(C)(C)O)C4)nc3c2C(C)C)cn2ncnc12 [Example 599]",
    "quantity-measured": "pIC50",
    "result": 5.52
  }
]

(P) CNC(=O)CN(C)C1CCC(c2ccc3[nH]c(-c4cn5ncnc5c(C)c4C)c(C(C)C)c3n2)CC1 (stereo not drawn) [Example 400]
(Q) Cc1c(-c2[nH]c3ccc(C4CCC(N)CC4)nc3c2C(C)C)cn2ncnc2c1C (stereo not drawn) [Example 466]
Q: Field: lower recorded pIC50 (choose P or Q ) Pick one; state its label.
Result: Q
(Q: 5.24, P: 5.81)

(1) CCCN1CCC(c2ccc3[nH]c(-c4cn(C)c(=O)c(Cl)c4C)c(C(C)C)c3n2)CC1 [Example 568]
(2) Cc1c(-c2[nH]c3ccc(C4CCN(C5COC5)CC4)nc3c2C(C)C)cn(C)c(=O)c1C [Example 542]
Q: Field: lower recorded pIC50 (choose 1 or 2 ) Pick one; state its label.
Result: 2

(I) CNC(=O)CN1CCC(c2ccc3[nH]c(-c4cc(C)c5ncnn5c4)c(C(C)C)c3n2)CC1 [Example 532]
(II) COc1cc(-c2[nH]c3cc(C)c(C4CCN(CC(C)(C)O)CC4)nc3c2C(C)C)cn2ncnc12 [Example 587]
(III) Cc1c(-c2[nH]c3ccc(C4CCN(CC#N)CC4)nc3c2C(C)C)cn2ncnc2c1C [Example 557]
Q: Put the items in order so that reported pIC50 rises from first to last. The labels, placed in the requested order, form the answer.
Result: I, II, III
(I: 5.44, II: 5.85, III: 6.36)

(a) Cc1c(-c2[nH]c3ccc(C4CCC(NC(C)(C)C(=O)N5CCOCC5)CC4)nc3c2C(C)C)cn2ncnc2c1C (stereo not drawn) [Example 496]
(b) COc1cc(-c2[nH]c3ccc(C4CCN(C5CCN(C)C5=O)CC4)nc3c2C(C)C)cn2ncnc12 (stereo not drawn) [Example 562]
Q: Field: lower recorded pIC50 (choose a or b ) Pick one; state its label.
Result: b
(b: 5.19, a: 5.58)

(P) Cc1c(-c2[nH]c3ccc(C4CCC(N5CC6(COC6)C5)CC4)nc3c2C(C)C)cn2ncnc2c1C (stereo not drawn) [Example 435]
(Q) Cc1c(-c2[nH]c3ccc(C4CCC(N(C)CC(N)=O)CC4)nc3c2C(C)C)cn2ncnc2c1C (stereo not drawn) [Example 398]
Q: Field: lower recorded pIC50 (choose P or Q ) Pick one; state its label.
Result: Q
(Q: 5.39, P: 5.66)

* * *

- tested-system: UniProt Q9NR96
- test-method-notes: TLR9 inhibition reporter assay (HEK-Blue SEAP)
- condition-context: read-out: TLR9 IC50; HEK-Blue cells overexpressing human TLR9, SEAP reporter, ODN2006 5 nM
pIC50: −log10 of the molar value.
quantity-measured: pIC50

[
  {
    "molecule": "COc1cc(-c2[nH]c3ccc(C4CN(C(C)C)C4)nc3c2C(C)C)cn2ncnc12",
    "result": 5.68
  },
  {
    "molecule": "Cc1c(-c2[nH]c3ccc(C4CC(NCCS(C)(=O)=O)C4)nc3c2C(C)C)cn2ncnc2c1C (stereo not drawn)",
    "result": 5.59
  },
  {
    "molecule": "Cc1cc(-c2[nH]c3cc(F)c(C4CCN(CC(=O)N(C)C)CC4)nc3c2C(C)C)cn2ncnc12",
    "result": 5.75
  },
  {
    "molecule": "CNC(=O)CNC1CC(c2ccc3[nH]c(-c4cn5ncnc5c(C)c4C)c(C(C)C)c3n2)C1 (stereo not drawn)",
    "result": 5.51
  },
  {
    "molecule": "Cc1c(-c2[nH]c3ccc(C4CCC(NCC(=O)NC(C)(C)C)CC4)nc3c2C(C)C)cn2ncnc2c1C (stereo not drawn) [Example 489]",
    "result": 5.18
  }
]

(1) Cc1c(-c2[nH]c3ccc(C4CCN(C5CCOCC5)CC4)nc3c2C(C)C)cn(C)c(=O)c1C
(2) CNC(=O)CN(C)C1CCC(c2ccc3[nH]c(-c4cn5ncnc5c(C)c4C)c(C(C)C)c3n2)CC1 (stereo not drawn) [Example 403]
(3) Cc1c(-c2[nH]c3ccc(C4CC(N(C)CCS(C)(=O)=O)C4)nc3c2C(C)C)cn2ncnc2c1C (stereo not drawn) [Example 636]
(4) Cc1c(-c2[nH]c3ccc(C4CCC(N(CC#N)CC(=O)N(C)C)CC4)nc3c2C(C)C)cn2ncnc2c1C (stereo not drawn) [Example 456]
(5) COc1cc(-c2[nH]c3ccc(C4CC(NC(=O)CN(C)C)C4)nc3c2C(C)C)cn2ncnc12 (stereo not drawn) [Example 638]
Q: Order the items by recorded pIC50; the first position goes to the largest value. The labels, placed in the requested order, form the answer.
Result: 5, 1, 2, 4, 3
(5: 5.90, 1: 5.64, 2: 5.37, 4: 5.11, 3: 4.67)

* * *

- tested-system: human TLR7 (Homo sapiens (Human), UniProt Q9NYK1)
- Sequence (Q9NYK1 27-1049): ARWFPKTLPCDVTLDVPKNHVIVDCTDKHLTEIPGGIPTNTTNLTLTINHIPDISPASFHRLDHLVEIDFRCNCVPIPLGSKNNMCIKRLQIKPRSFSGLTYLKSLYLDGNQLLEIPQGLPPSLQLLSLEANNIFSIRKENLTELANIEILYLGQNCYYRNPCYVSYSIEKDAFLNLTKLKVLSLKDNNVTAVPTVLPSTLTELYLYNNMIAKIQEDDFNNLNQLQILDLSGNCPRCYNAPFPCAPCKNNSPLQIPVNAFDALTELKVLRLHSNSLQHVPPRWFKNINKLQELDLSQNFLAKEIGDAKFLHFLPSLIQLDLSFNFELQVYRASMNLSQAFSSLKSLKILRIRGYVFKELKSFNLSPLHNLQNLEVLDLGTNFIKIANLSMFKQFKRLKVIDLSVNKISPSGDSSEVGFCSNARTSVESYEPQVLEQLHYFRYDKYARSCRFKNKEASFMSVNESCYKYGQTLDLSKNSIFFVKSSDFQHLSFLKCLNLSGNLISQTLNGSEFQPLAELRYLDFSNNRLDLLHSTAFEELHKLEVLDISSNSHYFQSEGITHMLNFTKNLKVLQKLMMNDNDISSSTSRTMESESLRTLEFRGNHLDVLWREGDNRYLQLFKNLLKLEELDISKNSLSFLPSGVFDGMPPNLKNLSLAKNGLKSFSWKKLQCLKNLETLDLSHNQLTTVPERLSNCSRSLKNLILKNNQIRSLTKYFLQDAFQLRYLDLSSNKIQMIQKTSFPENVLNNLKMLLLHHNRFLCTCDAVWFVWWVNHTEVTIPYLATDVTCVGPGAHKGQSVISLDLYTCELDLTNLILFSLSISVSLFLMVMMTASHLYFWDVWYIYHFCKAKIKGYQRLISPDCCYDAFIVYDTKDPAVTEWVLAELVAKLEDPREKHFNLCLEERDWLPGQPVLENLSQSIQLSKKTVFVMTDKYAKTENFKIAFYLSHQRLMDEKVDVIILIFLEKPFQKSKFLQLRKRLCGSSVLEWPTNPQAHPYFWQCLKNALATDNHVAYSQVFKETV
- test-method-notes: TLR7 inhibition reporter assay (HEK-Blue SEAP)
- Format: cell-based
- condition-context: HEK-Blue human TLR7 cells, gardiquimod 7.5 μM
quantity-measured: IC50 (nM)

Some entries whose results are on file:
[
  {
    "compound": "Cc1c(-c2[nH]c3ccc(N4CCN(C(=O)CN(C)CC(C)C)CC4)nc3c2C(C)C)cn2ncnc2c1C",
    "quantity-measured": "IC50",
    "unit-abbreviation": "nM",
    "result": 6.6
  },
  {
    "compound": "COc1cc(-c2[nH]c3ccc(N4CC5(CN(CC(C)(C)O)C5)C4)nc3c2C(C)C)cn2ncnc12",
    "quantity-measured": "IC50",
    "unit-abbreviation": "nM",
    "result": 4.3
  },
  {
    "compound": "[2H]C([2H])([2H])NCC(=O)N1CCN(c2ccc3[nH]c(-c4cn5ncnc5c(C)c4C)c(C(C)C)c3n2)CC1",
    "quantity-measured": "IC50",
    "unit-abbreviation": "nM",
    "result": 1.8
  },
  {
    "compound": "COc1cc(-c2[nH]c3ccc(C4CCC(N5CCC6(COC6)C5)CC4)nc3c2C(C)C)cn2ncnc12 (stereo not shown) [Example 1073]",
    "quantity-measured": "IC50",
    "unit-abbreviation": "nM",
    "result": 4.6
  },
  {
    "compound": "Cc1c(-c2[nH]c3ccc(N4CCNCC45CC5)nc3c2C(C)C)cn2ncnc2c1C",
    "quantity-measured": "IC50",
    "unit-abbreviation": "nM",
    "result": 9.8
  },
  {
    "compound": "CCNCC(=O)N1CCN(c2ccc3[nH]c(-c4cn5ncnc5c(C)c4C)c(C(C)C)c3n2)CC1",
    "quantity-measured": "IC50",
    "unit-abbreviation": "nM",
    "result": 3.1
  },
  {
    "compound": "Cc1c(-c2[nH]c3ccc(N4[C@@H]5CC[C@H]4CNC5)nc3c2C(C)C)cn2ncnc2c1C",
    "quantity-measured": "IC50",
    "unit-abbreviation": "nM",
    "result": 1.1
  },
  {
    "compound": "Cc1c(-c2[nH]c3ccc(N4C[C@H](C)N(C(=O)CN(C)C)C[C@H]4C)nc3c2C(C)C)cn2ncnc2c1C",
    "quantity-measured": "IC50",
    "unit-abbreviation": "nM",
    "result": 0.37
  }
]

(a) Cc1c(-c2[nH]c3ccc(N4CCN(C(=O)CN5CCCC5)C[C@@H]4C)nc3c2C(C)C)cn2ncnc2c1C
(b) [2H]C([2H])([2H])N(CC(=O)N1CCN(c2ccc3[nH]c(-c4cn5ncnc5c(C)c4C)c(C(C)C)c3n2)CC1)C([2H])([2H])[2H] (single isomer, unassigned)
Q: Field: lower recorded IC50 (choose a or b ) Pick one; state its label.
Result: a

(A) Cc1c(-c2[nH]c3ccc(N4C[C@@H](C)N(C(=O)CCN(C)C(C)(C)C)C[C@@H]4C)nc3c2C(C)C)cn2ncnc2c1C
(B) Cc1c(-c2[nH]c3ccc(C4CCC(N5CCC(F)C5)CC4)nc3c2C(C)C)cn2ncnc2c1C (stereo not shown) [Example 1062]
Q: Field: lower recorded IC50 (choose A or B ) Pick one; state its label.
Result: A
(A: 0.73 nM, B: 13 nM)
